Below: a set of entries, each annotated with reported Kd.
B1: NELF-E aptamer (parent)
chain: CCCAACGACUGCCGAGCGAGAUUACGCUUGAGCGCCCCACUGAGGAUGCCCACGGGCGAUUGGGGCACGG

Variants of: B1
Assay: HiTS-RAP
Settings: with NELF-E (Drosophila)
quantity.kind: Kd (nM)

[[record]]
entry_sequence = "CCCAUCGACUGCCGAGCAAGAUUACGCUUGAGCGCCCCACUGAGGAUGCCCACGGGCGAUUGGGGCACGG [A5U G18A]"
observed_value = 5.46

[[record]]
entry_sequence = "CCCAACGACUGCCGAGCGAGAGUACGCUUGAGCGCCCCACUGAGUAUGCCCACGGGCGAUUGGGGCACGG [U22G G45U]"
observed_value = 7.63

[[record]]
entry_sequence = "CCCAACGACUGCUGAGCGAGAUUACGCUUGAGCGCCCCACUGAGGAUGCCCGCGGGCGAUUGGGGCACGG [C13U A52G]"
observed_value = 3.79

[[record]]
entry_sequence = "CCCAACUACUGCCGAGCGAGAUUACGCCUGAGCGCCCCACUGAGGAUGCCCACGGGCGAUUGGGGCACGG [G7U U28C]"
observed_value = 9.32

[[record]]
entry_sequence = "CCCAACGACUGCCGAGCGAGAUUUCGCUGGAGCGCCCCACUGAGGAUGCCCACGGGCGAUUGGGGCACGG [A24U U29G]"
observed_value = 6.22

[[record]]
entry_sequence = "CCCGACGACUGCCGAGCGAGAUUACGCUUGAGCGCCCCACUGAGGAUGCCCUCGGGCGAUUGGGGCACGG [A4G A52U]"
observed_value = 18.3

[[record]]
entry_sequence = "CCCAACGAGUGCCGAGCGAGAUUACGCUUGAGCGCCCCACUGAGGAUGCCAACGGGCGAUUGGGGCACGG [C9G C51A]"
observed_value = 8.9

[[record]]
entry_sequence = "CCCAACGACUGCCUAUCGAGAUUACGCUUGAGCGCCCCACUGAGGAUGCCCACGGGCGAUUGGGGCACGG [G14U G16U]"
observed_value = 7.62

[[record]]
entry_sequence = "CCCAACGACAGCCGAGCGAGAUGACGCUUGAGCGCCCCACUGAGGAUGCCCACGGGCGAUUGGGGCACGG [U10A U23G]"
observed_value = 5.54

[[record]]
entry_sequence = "CCCAACGACUGCCGAGCGAGAUUACGCUGGAGCGCCCCACUGAGGAUGCCCACGCGCGAUUGGGGCACGG [U29G G55C]"
observed_value = 5.81

[[record]]
entry_sequence = "CCCAAGGACUGCCGAGCGAGAUUACGCUUGAGCGCCCCACUGAGGAUGCCCACGGGCGAUUGGGGAACGG [C6G C66A]"
observed_value = 5.34

[[record]]
entry_sequence = "CCCAACUACUGCCGAGCGAGAUUACGCUUGAGCGCCCCACUGAGGAUGCCUACGGGCGAUUGGGGCACGG [G7U C51U]"
observed_value = 7.54

[[record]]
entry_sequence = "CCCGACGACUGCCGAGCGAGAUUACGCUUGAGCGCCCCACUGAGGAUGCCCCCGGGCGAUUGGGGCACGG [A4G A52C]"
observed_value = 6.42

[[record]]
entry_sequence = "CCCGACGACUGCCAAGCGAGAUUACGCUUGAGCGCCCCACUGAGGAUGCCCACGGGCGAUUGGGGCACGG [A4G G14A]"
observed_value = 5.98

[[record]]
entry_sequence = "CCCAACGACGGCCGAGCGAGAUUACGGUUGAGCGCCCCACUGAGGAUGCCCACGGGCGAUUGGGGCACGG [U10G C27G]"
observed_value = 4.93

[[record]]
entry_sequence = "CCCUACGACUGCCGAGCGAGUUUACGCUUGAGCGCCCCACUGAGGAUGCCCACGGGCGAUUGGGGCACGG [A4U A21U]"
observed_value = 6.22

[[record]]
entry_sequence = "CCCAACGACUGCCGAGCGGGAUUACGCUUGAGCGCCCCACUGAGGAUGCCCACGUGCGAUUGGGGCACGG [A19G G55U]"
observed_value = 10.6

[[record]]
entry_sequence = "CCCAACGACUGCCGAGCGAGAUUACGCUCGAGCGCCCCACUGAGGAUGCCCACGGGCGAUUGGGGCUCGG [U29C A67U]"
observed_value = 5.08

[[record]]
entry_sequence = "CCCAACGACUGCCGAGCGGGAUUACGCUUGAGCGCCCCUCUGAGGAUGCCCACGGGCGAUUGGGGCACGG [A19G A39U]"
observed_value = 31.1

[[record]]
entry_sequence = "CCCAACGACUGCCGAGCGAGAUUACGCUUGAGCGCCCCACUGGGGAUGCCCACGGGCGGUUGGGGCACGG [A43G A59G]"
observed_value = 69

[[record]]
entry_sequence = "CCCAACGACUGCCGAUCGAGAUUACGCUUGAGCGCCCCACUGAGGAUGCCCACGGGCGAUCGGGGCACGG [G16U U61C]"
observed_value = 77.5

[[record]]
entry_sequence = "CCCAACUGCUGCCGAGCGAGAUUACGCUUGAGCGCCCCACUGAGGAUGCCCACGGGCGAUUGGGGCACGG [G7U A8G]"
observed_value = 5.66

